- Organism: Rattus norvegicus
- ASSAY: DrugMatrix - Regimen: Daily Repeat
- Assay type: toxicity, organism-based, Sprague-Dawley
- Design: regimen Daily Repeat, gender Male, age 6-8 weeks
- CONDITIONS: in vivo, po, 40 mg/kg, […], tissue Blood, route oral GAVAGE, dose level Low, time 14 day
PROPERTY_NAME: ABSOLUTE EOSINOPHIL

Please look at this compound and report its ABSOLUTE EOSINOPHIL: `C=CCN` 42 cells/µL

====

- Species on record: Rattus norvegicus
- ASSAY: DrugMatrix - Regimen: Daily Repeat
- Format: toxicity, organism-based, Sprague-Dawley
- Parameters: regimen Daily Repeat, gender Male, age 6-8 weeks
- CONDITIONS: in vivo, ip, 5 mg/kg, 120 h, tissue Blood, route intraperitoneal, dose level High, time 5 day, vehicle 100 % SALINE
PROPERTY_NAME: ABSOLUTE LYMPHOCYTE (cells/µL)
Give bare numbers, in cells/µL.

Return ABSOLUTE LYMPHOCYTE for the following sequence: `CARBOPLATIN` 5500
